Tested on: 857933-349-R-J2-PDC complex spheroid viability
Test: Anticancer human tumor 857933-349-R-J2-PDC patient-derived colon adenocarcinoma cell line growth inhibition [POLQ]
Conditions: second compound 3.16 µM; first compound 0.0316 µM; active compounds read low
I'd appreciate it if you marked entries YES when viability, T/C is lower than 80% and NO when it is not.

INSERT INTO results (compound, grouplabel) VALUES
  ('CC1COCCN1c1cc(C2(S(C)(=N)=O)CC2)nc(-c2ccnc3[nH]ccc23)n1 (stereo unspecified) + Cc1cccc(N(C)C(=O)C2C(O)CCN2c2nc(C)cc(C(F)(F)F)c2C#N)c1', 'NO');

Identify whether the compound C=CCn1c(=O)c2cnc(Nc3ccc(N4CCN(C)CC4)cc3)nc2n1-c1cccc(C(C)(C)O)n1 + Cc1cccc(N(C)C(=O)C2C(O)CCN2c2nc(C)cc(C(F)(F)F)c2C#N)c1 records viability, T/C below 80%.
NO

Lookup COc1cc(C2c3cc4c(cc3C(OC3OC5COC(C)OC5C(O)C3O)C3COC(=O)C23)OCO4)cc(OC)c1O (stereo unspecified) + Cc1cccc(N(C)C(=O)C2C(O)CCN2c2nc(C)cc(C(F)(F)F)c2C#N)c1
YES

Lookup CC1COCCN1c1cc(C2(S(C)(=N)=O)CC2)nc(-c2ccnc3[nH]ccc23)n1 (stereo unspecified) + Nc1ccc(C#CCN(C(=O)Cc2ncc(C(F)(F)F)cc2C(F)(F)F)c2ccc(F)cc2)nn1
NO

Lookup CCCS(=O)(=O)Nc1ccc(F)c(C(=O)c2c[nH]c3ncc(-c4ccc(Cl)cc4)cc23)c1F + COC1C(OC(N)=O)C(O)C(Oc2ccc3c(O)c(NC(=O)c4ccc(O)c(CC=C(C)C)c4)c(=O)oc3c2C)OC1(C)C
NO

Lookup CC[C@@]1(O)C(=O)OCc2c1cc1n(c2=O)Cc2cc3c(CN(C)C)c(O)ccc3nc2-1 + COC1C(OC(N)=O)C(O)C(Oc2ccc3c(O)c(NC(=O)c4ccc(O)c(CC=C(C)C)c4)c(=O)oc3c2C)OC1(C)C
YES

Lookup C=CC(=O)N1CCN(c2nc(=O)n(-c3c(C)ccnc3C(C)C)c3nc(-c4c(O)cccc4F)c(F)cc23)C(C)C1 (stereo unspecified) + Cc1cccc(N(C)C(=O)C2C(O)CCN2c2nc(C)cc(C(F)(F)F)c2C#N)c1
YES

Lookup O=c1[nH]cc(F)c(=O)[nH]1 + Cc1cccc(N(C)C(=O)C2C(O)CCN2c2nc(C)cc(C(F)(F)F)c2C#N)c1
NO

Lookup C=CC(=O)N1CCN(c2nc(=O)n(-c3c(C)ccnc3C(C)C)c3nc(-c4c(O)cccc4F)c(F)cc23)C(C)C1 (stereo unspecified) + Nc1ccc(C#CCN(C(=O)Cc2ncc(C(F)(F)F)cc2C(F)(F)F)c2ccc(F)cc2)nn1
NO

Lookup COc1ccc([C@@H](O)c2cc(-c3ncnc4cc(N5CCOCC5)ccc34)c(F)cc2Cl)nn1 + COC1C(OC(N)=O)C(O)C(Oc2ccc3c(O)c(NC(=O)c4ccc(O)c(CC=C(C)C)c4)c(=O)oc3c2C)OC1(C)C
NO

----------
Tested on: 857933-349-R-J2-PDC complex spheroid viability
Assay: Anticancer human tumor 857933-349-R-J2-PDC cell line growth inhibition [POLQ];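 note: spheroids exposed to compounds for seven days before readout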
Conditions: second compound 0.0316 µM; first compound 0.1 µM; active compounds read low
observedProperty: viability, T/C (%)
Report only the number, with the unit % understood.

// solved cases for viability, T/C follow
INSERT INTO measurements (molecule, observedproperty, valueunit, resultvalue) VALUES
  ('CCCS(=O)(=O)Nc1ccc(F)c(C(=O)c2c[nH]c3ncc(-c4ccc(Cl)cc4)cc23)c1F + Nc1ccc(C#CCN(C(=O)Cc2ncc(C(F)(F)F)cc2C(F)(F)F)c2ccc(F)cc2)nn1', 'viability, T/C', '%', 102),
  ('CNCc1ccc(-c2[nH]c3cc(F)cc4c3c2CCNC4=O)cc1 + COC1C(OC(N)=O)C(O)C(Oc2ccc3c(O)c(NC(=O)c4ccc(O)c(CC=C(C)C)c4)c(=O)oc3c2C)OC1(C)C', 'viability, T/C', '%', 90),
  ('COc1cc2cc(C(=O)CCC(=O)O)sc2cc1OC + COC1C(OC(N)=O)C(O)C(Oc2ccc3c(O)c(NC(=O)c4ccc(O)c(CC=C(C)C)c4)c(=O)oc3c2C)OC1(C)C', 'viability, T/C', '%', 98.3),
  ('C=CC(=O)N1CCN(c2nc(=O)n(-c3c(C)ccnc3C(C)C)c3nc(-c4c(O)cccc4F)c(F)cc23)C(C)C1 (stereo unspecified) + Nc1ccc(C#CCN(C(=O)Cc2ncc(C(F)(F)F)cc2C(F)(F)F)c2ccc(F)cc2)nn1', 'viability, T/C', '%', 101),
  ('COc1cc2cc(C(=O)CCC(=O)O)sc2cc1OC + Cc1cccc(N(C)C(=O)C2C(O)CCN2c2nc(C)cc(C(F)(F)F)c2C#N)c1', 'viability, T/C', '%', 95.1);

Fill in the blank: the reported viability, T/C of C=CCn1c(=O)c2cnc(Nc3ccc(N4CCN(C)CC4)cc3)nc2n1-c1cccc(C(C)(C)O)n1 + Cc1cccc(N(C)C(=O)C2C(O)CCN2c2nc(C)cc(C(F)(F)F)c2C#N)c1 is ____.
112

Lookup COc1cccc2c1C(=O)c1c(O)c3c(c(O)c1C2=O)CC(O)(C(=O)CO)CC3OC1CC(N)C(O)C(C)O1 (stereo unspecified) + Nc1ccc(C#CCN(C(=O)Cc2ncc(C(F)(F)F)cc2C(F)(F)F)c2ccc(F)cc2)nn1
63

Lookup CC1COCCN1c1cc(-c2ccnn2C)c2ccnc(-c3ccn[nH]3)c2n1 (stereo unspecified) + Cc1cccc(N(C)C(=O)C2C(O)CCN2c2nc(C)cc(C(F)(F)F)c2C#N)c1
55.3

Lookup COc1cc2cc(C(=O)CCC(=O)O)sc2cc1OC + Nc1ccc(C#CCN(C(=O)Cc2ncc(C(F)(F)F)cc2C(F)(F)F)c2ccc(F)cc2)nn1
110

Lookup C=CCn1c(=O)c2cnc(Nc3ccc(N4CCN(C)CC4)cc3)nc2n1-c1cccc(C(C)(C)O)n1 + COC1C(OC(N)=O)C(O)C(Oc2ccc3c(O)c(NC(=O)c4ccc(O)c(CC=C(C)C)c4)c(=O)oc3c2C)OC1(C)C
81.7

Lookup O=C(Nc1ccc(O)c(NS(=O)(=O)c2ccc(F)cc2)c1)c1ccc(-c2ccccc2)cc1 + COC1C(OC(N)=O)C(O)C(Oc2ccc3c(O)c(NC(=O)c4ccc(O)c(CC=C(C)C)c4)c(=O)oc3c2C)OC1(C)C
105

Lookup CC[C@@]1(O)C(=O)OCc2c1cc1n(c2=O)Cc2cc3c(CN(C)C)c(O)ccc3nc2-1 + Cc1cccc(N(C)C(=O)C2C(O)CCN2c2nc(C)cc(C(F)(F)F)c2C#N)c1
43.1
